Test system: Nanoluciferase (engineered Oplophorus gracilirostris luciferase)
Test: Primary Nanoluciferase (NLuc) qHTS assay for identification of artifact compounds. (AID 1845222);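 also: NLuc secreted into diluted conditioned medium of S16 cells; 0% = DMSO and -100% = no enzyme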
Details: NLuc-conditioned medium, Nano-Glo luminescence, 5 min; series mostly up to 54.1 µM
Activity calls are given as the source filed them. Calls follow the shape of the dose curve; as a rule, active = well fitted inhibition curve with a large enough effect; inconclusive = small, poorly fitted or top-dose-only effect; inactive = flat fitted curve, though single readings scatter.

COMPOUND	activity, negative = inhibition
CC(=O)O[C@H]1CC(C)(C)CC2[C@]13CO[C@@]21CCC2[C@@]4(C)CC[C@H](O[C@@H]5OC[C@H](O[C@@H]6O[C@H](CO)[C@@H](O)[C@H](O)[C@H]6O[C@@H]6OC[C@@H](O[C@@H]7O[C@H](CO)[C@@H](O)[C@H](O)[C@H]7O)[C@H](O)[C@H]6O)[C@H](O)[C@H]5O[C@@H]5O[C@H](CO)[C@@H](O)[C@H](O)[C@H]5O)[C@@](C)(CO)C4CC[C@@]2(C)[C@]1(C)C[C@H]3O (some centres not stated)	2.8% [at 11.6 µM] (inactive)
